Data origin: patent US7994281

- Tgt: T1, DR4 (TRAIL-R1) Fc, recombinant receptor from R&D Systems (UniProt O00220 24-239, limits assumed)
- T1 construct: also called soluble TRAIL-R1 Fc; not shown: Fc part of the bought Fc fusion
- Measurement description: SPR (Biacore): clarified E. coli extract diluted 1:50 injected over immobilised DR4, DR5, DcR1 and RANK; bars are the response as a fraction of the DR5 response
Reported property: binding result

TRAIL mutant D218F (ligand) VRERGPQRVAAHITGTRGRSNTLSSPNSKNEKALGRKINSWESSRSGHSFLSNLHLRNGELVIHEKGFYYIYSQTYFRFQEEIKENTKNDKQMVQYIYKYTSYPFPILLMKSARNSCWSKDAEYGLYSIYQGGIFELKENDRIFVSVTNEHLIDMDHEASFFGAFLVG; binds
TRAIL mutant E155M (ligand) VRERGPQRVAAHITGTRGRSNTLSSPNSKNEKALGRKINSWMSSRSGHSFLSNLHLRNGELVIHEKGFYYIYSQTYFRFQEEIKENTKNDKQMVQYIYKYTSYPDPILLMKSARNSCWSKDAEYGLYSIYQGGIFELKENDRIFVSVTNEHLIDMDHEASFFGAFLVG; binds
